Subject of test: Ephrin type-B receptor 4 (Homo sapiens, UniProt P54760)
Sequence (P54760 whole entry): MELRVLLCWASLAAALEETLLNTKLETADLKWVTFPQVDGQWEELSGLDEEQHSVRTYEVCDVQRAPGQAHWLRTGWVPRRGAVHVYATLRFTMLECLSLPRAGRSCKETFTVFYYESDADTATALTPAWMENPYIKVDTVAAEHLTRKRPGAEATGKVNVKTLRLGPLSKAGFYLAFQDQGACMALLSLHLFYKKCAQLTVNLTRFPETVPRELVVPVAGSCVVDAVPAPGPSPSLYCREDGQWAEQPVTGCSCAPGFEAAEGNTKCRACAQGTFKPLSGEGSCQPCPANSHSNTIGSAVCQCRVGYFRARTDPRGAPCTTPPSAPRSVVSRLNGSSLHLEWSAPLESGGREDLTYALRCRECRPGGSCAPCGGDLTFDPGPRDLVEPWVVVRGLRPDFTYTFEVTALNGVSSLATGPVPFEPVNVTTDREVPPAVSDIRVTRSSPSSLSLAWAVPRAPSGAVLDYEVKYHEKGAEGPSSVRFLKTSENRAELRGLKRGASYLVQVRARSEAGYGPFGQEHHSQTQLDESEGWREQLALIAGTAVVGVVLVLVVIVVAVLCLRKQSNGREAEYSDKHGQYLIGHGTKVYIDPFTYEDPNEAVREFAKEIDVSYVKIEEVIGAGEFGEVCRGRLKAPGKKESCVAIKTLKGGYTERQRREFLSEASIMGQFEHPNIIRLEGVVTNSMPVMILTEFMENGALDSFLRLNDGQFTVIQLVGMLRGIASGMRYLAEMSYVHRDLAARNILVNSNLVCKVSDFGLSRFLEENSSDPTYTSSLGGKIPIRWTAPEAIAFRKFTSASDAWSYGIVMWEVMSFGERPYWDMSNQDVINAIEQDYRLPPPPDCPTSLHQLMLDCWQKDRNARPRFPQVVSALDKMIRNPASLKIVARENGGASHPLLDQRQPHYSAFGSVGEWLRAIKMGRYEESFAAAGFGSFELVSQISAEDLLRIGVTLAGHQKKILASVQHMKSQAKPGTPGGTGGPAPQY
Experimental readout: pIC50
Give bare numbers, as −log10 of the molar value.

Identify the reported pIC50 for the following entry. "N=C(N)SCCCn1c(=O)c2c(c1=O)n1c3ccccc3cc1c1cccc3ccn2c31"
5.64

Reference source: ChEMBL document CHEMBL1151764
